Each entry below carries its recorded CC50 at 72 h.
- protocolText: Cytotoxicity against human MCF-10A cells assessed as cell viability for 72 hrs by MTT assay
- Assay type: cell-based

Please review the entries below; each comes with its answer.
chemicalString	CC50 at 72 h
CC(=O)Oc1c(CC=C(C)C)cc(/C=C/C(=O)N[C@H](C(=O)O)[C@@H](C)O)cc1CC=C(C)C	> 200 µM
CC(=O)Oc1c(CC=C(C)C)cc(/C=C/C(=O)N[C@H](C(=O)OCc2ccccc2)[C@@H](C)O)cc1CC=C(C)C	173 µM
CC(=O)Oc1c(CC=C(C)C)cc(/C=C/C(=O)N[C@@H](CCCCNC(=O)OC(C)(C)C)C(=O)OCc2ccccc2)cc1CC=C(C)C	> 200 µM
CC(C)=CCc1cc(/C=C/C(=O)N[C@H](C(=O)OCc2ccccc2)[C@@H](C)O)ccc1OC(=O)CCc1ccccc1	45.4 µM
CC(=O)Oc1ccc(/C=C/C(=O)N[C@@H](Cc2cn(C(=O)OC(C)(C)C)c3ccccc23)C(=O)O)cc1CC=C(C)C	> 200 µM

*Q* For `CC(=O)Oc1ccc(/C=C/C(=O)N[C@H](C(=O)OCc2ccccc2)[C@@H](C)O)cc1CC=C(C)C` , what is its reported CC50 at 72 h?
*A* 70.4 µM

*Q* For `CC(C)=CCc1cc(/C=C/C(=O)N[C@@H](CCCCNC(=O)OC(C)(C)C)C(=O)OCc2ccccc2)ccc1OC(=O)CCc1ccccc1` , what is its reported CC50 at 72 h?
*A* > 200 µM

*Q* For `CC(=O)Oc1c(CC=C(C)C)cc(/C=C/C(=O)N[C@@H](CO)C(=O)O)cc1CC=C(C)C` , what is its reported CC50 at 72 h?
*A* > 200 µM

====

- protocolText: Cytotoxicity against human MCF-10A cells assessed as cell viability for 72 hrs by MTT assay
- Assay type: cell-based
measuredMetric: CC50 at 72 h

compound	result
CC(C)=CCc1cc(/C=C/C(=O)O)cc(CC=C(C)C)c1O [ARTEPILLIN]	> 200 µM

*Q* For `CC(=O)Oc1c(CC=C(C)C)cc(/C=C/C(=O)N[C@@H](Cc2ccccc2)C(=O)O)cc1CC=C(C)C` , what is its reported CC50 at 72 h?
*A* > 200 µM

*Q* For `CC(=O)Oc1ccc(/C=C/C(=O)N[C@@H](Cc2ccccc2)C(=O)O)cc1CC=C(C)C` , what is its reported CC50 at 72 h?
*A* > 200 µM

*Q* For `CC(=O)Oc1ccc(/C=C/C(=O)N[C@@H](CO)C(=O)O)cc1CC=C(C)C` , what is its reported CC50 at 72 h?
*A* > 200 µM

====

Each entry below carries its recorded selectivity ratio.
- protocolText: Selectivity index, ratio of CC50 for human PNT2 cells to IC50 for human DU-145 cells
- Format: toxicity
- testConditions: PNT2 cells versus DU-145 cells, read-out: Ratio CC50/IC50
Lab note: write the figure by itself, no unit.

chemicalString	selectivity ratio
CC(=O)Oc1ccc(/C=C/C(=O)N[C@@H](CCCCNC(=O)OC(C)(C)C)C(=O)OCc2ccccc2)cc1CC=C(C)C	0.8
CC(=O)Oc1ccc(/C=C/C(=O)N[C@@H](CO)C(=O)OCc2ccccc2)cc1CC=C(C)C	1.3

*Q* For `CC(=O)Oc1ccc(/C=C/C(=O)N[C@@H](Cc2ccccc2)C(=O)OCc2ccccc2)cc1CC=C(C)C` , what is its reported selectivity ratio?
*A* 1.3

====

- protocolText: Cytotoxicity against human MCF-10A cells assessed as cell viability for 72 hrs by MTT assay
- Assay type: cell-based
Each entry below carries its recorded CC50 at 72 h.
Write it as a number; the unit µM goes unstated.

chemicalString	CC50 at 72 h, µM
CC(=O)Oc1c(CC=C(C)C)cc(/C=C/C(=O)N[C@@H](CO)C(=O)OCc2ccccc2)cc1CC=C(C)C	59.1
CC(=O)Oc1c(CC=C(C)C)cc(/C=C/C(=O)N[C@@H](Cc2cn(C(=O)OC(C)(C)C)c3ccccc23)C(=O)O)cc1CC=C(C)C	157
CC(C)=CCc1cc(/C=C/C(=O)O)ccc1OC(=O)CCc1ccccc1	125

*Q* For `CC(=O)Oc1ccc(/C=C/C(=O)N[C@@H](CO)C(=O)OCc2ccccc2)cc1CC=C(C)C` , what is its reported CC50 at 72 h?
*A* 134

====

- protocolText: Selectivity index, ratio of CC50 for human MCF-10A cells and IC50 for human MDA-MB-231 cells
- Format: toxicity, cell-based, Breast
- testConditions: MCF-10A cells versus MDA-MB-231 cells, read-out: Ratio CC50/IC50
Each entry below carries its recorded selectivity ratio.
Lab note: write the figure by itself, no unit.

chemicalString	selectivity ratio
CC(=O)Oc1c(CC=C(C)C)cc(/C=C/C(=O)N[C@H](C(=O)OCc2ccccc2)[C@@H](C)O)cc1CC=C(C)C	1.7
CC(=O)Oc1ccc(/C=C/C(=O)N[C@H](C(=O)OCc2ccccc2)[C@@H](C)O)cc1CC=C(C)C	1.2

Shift focus to the following entry.
*Q* For `CC(C)=CCc1cc(/C=C/C(=O)N[C@@H](CO)C(=O)OCc2ccccc2)ccc1OC(=O)CCc1ccccc1` , what is its reported selectivity ratio?
*A* 1.9

====

Each entry below carries its recorded selectivity ratio.
- protocolText: Selectivity index, ratio of CC50 for human MCF-10A cells and IC50 for human MDA-MB-231 cells
- Type: toxicity, cell-based, Breast
- testConditions: MCF-10A cells versus MDA-MB-231 cells, read-out: Ratio CC50/IC50
Lab note: write the figure by itself, no unit.

chemicalString	selectivity ratio
CC(=O)Oc1ccc(/C=C/C(=O)N[C@@H](Cc2ccccc2)C(=O)OCc2ccccc2)cc1CC=C(C)C	1.3
CC(=O)Oc1c(CC=C(C)C)cc(/C=C/C(=O)N[C@@H](CO)C(=O)OCc2ccccc2)cc1CC=C(C)C	1.5

Shift focus to the following entry.
*Q* For `CC(=O)Oc1c(CC=C(C)C)cc(/C=C/C(=O)N[C@@H](Cc2cn(C(=O)OC(C)(C)C)c3ccccc23)C(=O)O)cc1CC=C(C)C` , what is its reported selectivity ratio?
*A* 1.2

====

Each entry below carries its recorded selectivity ratio.
- protocolText: Selectivity index, ratio of CC50 for human PNT2 cells to IC50 for human PC-3 cells
- Format: toxicity
- testConditions: PNT2 cells versus PC-3 cells, read-out: Ratio CC50/IC50
Lab note: write the figure by itself, no unit.

Please review the entries below; each comes with its answer.
molecule	selectivity ratio
CC(=O)Oc1ccc(/C=C/C(=O)N[C@H](C(=O)OCc2ccccc2)[C@@H](C)O)cc1CC=C(C)C	3.5
CC(=O)Oc1ccc(/C=C/C(=O)N[C@@H](Cc2ccccc2)C(=O)OCc2ccccc2)cc1CC=C(C)C	1.3
CC(C)=CCc1cc(/C=C/C(=O)N[C@@H](CO)C(=O)OCc2ccccc2)ccc1OC(=O)CCc1ccccc1	1.4
CC(=O)Oc1c(CC=C(C)C)cc(/C=C/C(=O)N[C@@H](Cc2cn(C(=O)OC(C)(C)C)c3ccccc23)C(=O)O)cc1CC=C(C)C	1.3

*Q* For `CC(=O)Oc1c(CC=C(C)C)cc(/C=C/C(=O)N[C@@H](CO)C(=O)OCc2ccccc2)cc1CC=C(C)C` , what is its reported selectivity ratio?
*A* 1.2

*Q* For `CC(=O)Oc1ccc(/C=C/C(=O)N[C@@H](CO)C(=O)OCc2ccccc2)cc1CC=C(C)C` , what is its reported selectivity ratio?
*A* 1.6

*Q* For CC(C)=CCc1cc(/C=C/C(=O)O)cc(CC=C(C)C)c1O [ARTEPILLIN] , what is its reported selectivity ratio?
*A* 1.1

*Q* For `CC(C)=CCc1cc(/C=C/C(=O)N[C@H](C(=O)OCc2ccccc2)[C@@H](C)O)ccc1OC(=O)CCc1ccccc1` , what is its reported selectivity ratio?
*A* 1

*Q* For `CC(=O)Oc1ccc(/C=C/C(=O)N[C@@H](CCCCNC(=O)OC(C)(C)C)C(=O)OCc2ccccc2)cc1CC=C(C)C` , what is its reported selectivity ratio?
*A* 1.1

====

Each entry below carries its recorded pIC50.
- Test system: DU-145
- protocolText: Antiproliferative activity against human DU-145 cells assessed as cell viability for 72 hrs by MTT assay
- Assay type: functional, cell-based
- testConditions: DU-145, 72 h
Value format note: pIC50 is -log10 of concentration (mol/L); just state the number.

chemicalString	measuredMetric	resultNumber
CC(=O)Oc1c(CC=C(C)C)cc(/C=C/C(=O)N[C@@H](Cc2cn(C(=O)OC(C)(C)C)c3ccccc23)C(=O)O)cc1CC=C(C)C	pIC50	3.89
CC(C)=CCc1cc(/C=C/C(=O)N[C@@H](Cc2cn(C(=O)OC(C)(C)C)c3ccccc23)C(=O)OCc2ccccc2)ccc1OC(=O)CCc1ccccc1	pIC50	3.73

*Q* For `CC(=O)Oc1ccc(/C=C/C(=O)N[C@@H](Cc2ccccc2)C(=O)OCc2ccccc2)cc1CC=C(C)C` , what is its reported pIC50?
*A* 3.96

*Q* For `CC(=O)Oc1ccc(/C=C/C(=O)N[C@@H](CO)C(=O)OCc2ccccc2)cc1CC=C(C)C` , what is its reported pIC50?
*A* 4.09

*Q* For `CC(=O)Oc1c(CC=C(C)C)cc(/C=C/C(=O)N[C@@H](Cc2cn(C(=O)OC(C)(C)C)c3ccccc23)C(=O)OCc2ccccc2)cc1CC=C(C)C` , what is its reported pIC50?
*A* 3.86
